- TEST SYSTEM: African Green monkey MASP-2 (in African Green monkey serum) (African Green monkey)
- ASSAY PROCEDURE: cell-based or functional assay
QUANTITY MEASURED: Functional IC50, C3b deposition, non-human primate serum Exp #1 (nM)

* scFv mother clone 17N16 (scFv, also called 17N16mc; 17N16m) scFv: QVQLQQSGPGLVKPSQTLSLTCAISGDSVSSTSAAWNWIRQSPSRGLEWLGRTYYRSKWYNDYAVSVKSRITINPDTSKNQFSLQLNSVTPEDTAVYYCARDPFGVPFDIWGQGTMVTVSSKLSGSASAPKLEEGEFSEARVSYVLTQPPSVSVAPGQTARITCGGNNIGSKNVHWYQQKPGQAPVLVVYDDSDRPSGIPERFSGSNSGNTATLTVSRVEAGDEADYYCQVWDTTTDHVVFGGGTKLTVLAAAGSEQKLISEEDLNSHHHHHH | 95.6
* scFv mother clone 17D20 (scFv, also called 17D20 (17P10); 17D20mc) scFv: QVTLKESGPVLVKPTETLTLTCTVSGFSLSRGKMGVSWIRQPPGKALEWLAHIFSSDEKSYRTSLKSRLTISKDTSKNQVVLTMTNMDPVDTATYYCARIRAGGIDYWGQGTLVTVSSKLSGSASAPKLEEGEFSEARVQPVLTQPPSVSVSPGQTASITCSGDKLGDKFAYWYQQKPGHSPVLVIYQDNKRPSGIPGRFSGSNSGNTATLTISGTQAMDEADYYCQAWDSSTAVFGTGTKVTVLAAAGSEQKLISEEDLNSHHHHHH | 94.8
* scFv mother clone 4D9 (scFv, also called 4D9 (18L16)) scFv: QITLKESGPVLVKPTETLTLTCTVSGFSLSNARMGVSWIRQPPGKALEWLAHIFSNDEKSYSTSLKSRLTISKDTSKSQVVLTMTNMDPVDTATYYCARMRYSSSLYGMDVWGQGTRVTVSSKLSGSASAPKLEEGEFSEARVSYELIQPPSVSVSPGQTASITCSGDKLGDKYVSWYQQKPGRSPVLVIYRDTKRPSGIPERFSGSNSGNTATLTISGTQAMDEADYYCQAWDSSTVVFGGGTKLTVLAAAGSEQKLISEEDLNSHHHHHH | 115
* scFv mother clone 9P13 (scFv) scFv: QVQLQQSGPGLVKPSQTLSLTCAISGDSVSSNSAAWNWIRQSPSRGLEWLGRTYYRSKWYNDYAVSVKSRITINPDTSKNQFSLQLNSVTPEDTAVYYCARDPFGVPFDIWGQGTMVTVSSKLSGSASAPKLEEGEFSEARVSYELTQLPSVSVAPGQTARVTCGGNNIRSKNVHWYQQKPGQAPVLVVYDDTDRPSGIPERFSGSNSGNTATLTVSRVEAGDEADYYCQVWDTTTDHVVFGGGTKVTVLAAAGSEQKLISEEDLNSHHHHHH | 99.3
